Origin of the recorded values: paper PMC10726135

- subject.of.test: HNF4alpha2 (COS-7 nuclear extract) (Homo sapiens, UniProt P41235 1-474)
- Sequence: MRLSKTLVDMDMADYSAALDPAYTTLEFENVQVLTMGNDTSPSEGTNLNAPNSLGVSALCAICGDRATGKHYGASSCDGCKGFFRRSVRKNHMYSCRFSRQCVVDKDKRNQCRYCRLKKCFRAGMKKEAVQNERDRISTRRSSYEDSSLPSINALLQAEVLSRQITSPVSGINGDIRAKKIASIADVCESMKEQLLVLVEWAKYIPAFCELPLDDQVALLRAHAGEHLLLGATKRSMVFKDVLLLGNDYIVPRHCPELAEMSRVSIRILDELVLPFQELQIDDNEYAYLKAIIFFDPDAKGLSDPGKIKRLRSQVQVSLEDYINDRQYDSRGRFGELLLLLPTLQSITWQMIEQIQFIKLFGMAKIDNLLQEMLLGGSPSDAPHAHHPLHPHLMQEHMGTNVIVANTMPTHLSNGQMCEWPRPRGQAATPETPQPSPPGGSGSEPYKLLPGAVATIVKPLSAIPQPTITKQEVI
- test: protein-binding microarray; COS-7 nuclear extract on double-stranded Agilent 4x180k PBM; binding buffer, salt, pH and temperature not given in the material; high values mean tight binding
- condition.notes: chain copies: 2; label: 3' end of strand 1 on the slide; dsDNA, one strand shown
Whole data set: some 18,000 sequences, median “log2 normalized intensity” near 0.39, cut for the highest 2% near 6.6. What follows is part of a selection rich in the highest values, with near analogues and random picks from the rest.
Response field label takes Condition met when binding signal is strictly below 2 log2 normalized intensity and Condition not met in all other cases.

These solved cases illustrate the format of a correct answer.
• TGCCTCCTTCAAGGATTAGCAGATAAATCTGCCTAGGGAGATTAGAGTATCGGTCGA = Condition met
• TCTTAGGAAAGAACAGGTCAAAGGTCAGTTGCCTAGGGAGATTAGAGTATCGGTCGA = Condition not met
• TAGGAGACTGTCTTAGGAAAGAACAGGTCAGCCTAGGGAGATTAGAGTATCGGTCGA = Condition met

Inquiry: binding signal strictly < 2 log2 normalized intensity for this sequence? TCAGAAACAGGAATTCAAAGGTGCAAAGGTGCCTAGGGAGATTAGAGTATCGGTCGA
Reply text: Condition not met

Inquiry: For TGCCATTCTTCCAGTTGTGTGCACAAGAGGGCCTAGGGAGATTAGAGTATCGGTCGA , is the recorded binding signal below the cut-off of 2 log2 normalized intensity?
Reply text: Condition met

* * *

Recorded binding signal values for a group of sequences are listed next.
- subject.of.test: HNF4alpha2 (COS-7 nuclear extract) (Homo sapiens, UniProt P41235 1-474)
- Sequence: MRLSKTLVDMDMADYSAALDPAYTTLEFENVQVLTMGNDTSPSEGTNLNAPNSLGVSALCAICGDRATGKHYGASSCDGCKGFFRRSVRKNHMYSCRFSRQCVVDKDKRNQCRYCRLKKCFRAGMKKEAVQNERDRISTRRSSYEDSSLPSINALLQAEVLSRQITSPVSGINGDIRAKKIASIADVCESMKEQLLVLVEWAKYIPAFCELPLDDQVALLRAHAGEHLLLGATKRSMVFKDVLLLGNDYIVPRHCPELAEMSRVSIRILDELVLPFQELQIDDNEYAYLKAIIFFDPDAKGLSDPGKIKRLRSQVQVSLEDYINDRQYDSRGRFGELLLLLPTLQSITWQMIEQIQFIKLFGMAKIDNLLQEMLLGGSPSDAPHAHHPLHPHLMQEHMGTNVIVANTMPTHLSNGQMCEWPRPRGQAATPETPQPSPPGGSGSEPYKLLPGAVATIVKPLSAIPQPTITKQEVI
- test: protein-binding microarray; COS-7 nuclear extract on double-stranded Agilent 4x180k PBM; binding buffer, salt, pH and temperature not given in the material; high values mean tight binding
- condition.notes: chain copies: 2; label: 3' end of strand 1 on the slide; dsDNA, one strand shown
Whole data set: some 18,000 sequences, median “log2 normalized intensity” near 0.39, cut for the highest 2% near 6.6. The entries come from a sample that favours the highest values as a whole.

* GGACCTGAGGCTTTTGAGTCAATAATGGACGCCTAGGGAGATTAGAGTATCGGTCGA | 1.21 log2 normalized intensity
* TACTTTGGACTGGGGACCTGGTCTGAGATAGCCTAGGGAGATTAGAGTATCGGTCGA | 1.75 log2 normalized intensity
* TGCTGGAGATGAGGCTCAGACCTGACCTTTGCCTAGGGAGATTAGAGTATCGGTCGA | 6.49 log2 normalized intensity
* AAGACTTTGGACTTTGGACCTGAGGCTTTTGCCTAGGGAGATTAGAGTATCGGTCGA | 9.84 log2 normalized intensity

Read the next record carefully.
Inquiry: Given the sequence GAGATGAGGCTCAGACCTGACCTTTGGATTGCCTAGGGAGATTAGAGTATCGGTCGA , what is its reported binding signal?
Reply text: 7.99 log2 normalized intensity
